- assayed_target: UniProt:P08908
- assay_overview: Secondary radioligand binding assay, 5HT1a
- measurement_context: average of at least two experiments
pKi: −log10 of the molar value.
measurement_name: pKi

{"columns": ["molecule", "assayed_target", "qualifier_operator", "data_value"],
 "data": [
  ["CC1Cc2ccccc2N1C(=O)CN1CCO[C@H](COc2cccc(Cl)c2)C1 (some centres unmarked) [Compound 64]", "UniProt:P08908", "=", 6.19],
  ["Cc1ccnc(OC[C@H]2CN(CC(=O)N3c4ccccc4CC3C)CCO2)c1 (some centres unmarked) [Compound 70]", "UniProt:P08908", "=", 5.20],
  ["CC1Cc2ccccc2N1C(=O)CN1CCO[C@@H](COc2ccccn2)C1 (some centres unmarked) [Compound 69]", "UniProt:P08908", "<", 5.00],
  ["COc1cccc(OC[C@@H]2CN(CCN3CCc4ccccc43)CCO2)c1 [Compound 25s]", "UniProt:P08908", "=", 6.76],
  ["COc1cccc(OC[C@@H]2CN(CC(=O)N3CCc4ccccc43)CCO2)c1 [Compound 24s]", "UniProt:P08908", "=", 6.43],
  ["CC1Cc2ccccc2N1C(=O)CN1CCO[C@@H](COc2ccncc2)C1 (some centres unmarked) [Compound 68]", "UniProt:P08908", "<", 5.00],
  ["Cc1ncccc1OC[C@H]1CN(CC(=O)N2c3ccccc3C[C@H]2C)CCO1 [Compound 63]", "UniProt:P08908", "=", 5.30],
  ["c1ccc(OC[C@@H]2CN(CCN3CCc4ccccc43)CCO2)cc1 [Compound 19s]", "UniProt:P08908", "=", 9.22],
  ["C[C@@H]1Cc2ccccc2N1C(=O)CN1CCO[C@@H](COc2ccncc2)C1 [Compound 67]", "UniProt:P08908", "<", 5.00],
  ["O=C(CN1CCO[C@@H](COc2cccc(Cl)c2)C1)N1CCc2ccccc21 [Compound 22r]", "UniProt:P08908", "=", 6.42],
  ["COc1cccc(OC[C@H]2CN(CCN3CCc4ccccc43)CCO2)c1 [Compound 25r]", "UniProt:P08908", "=", 5.83]
]}

====

- assayed_target: Alpha1D adrenergic receptor (Homo sapiens (Human))
- Sequence (P25100 whole entry): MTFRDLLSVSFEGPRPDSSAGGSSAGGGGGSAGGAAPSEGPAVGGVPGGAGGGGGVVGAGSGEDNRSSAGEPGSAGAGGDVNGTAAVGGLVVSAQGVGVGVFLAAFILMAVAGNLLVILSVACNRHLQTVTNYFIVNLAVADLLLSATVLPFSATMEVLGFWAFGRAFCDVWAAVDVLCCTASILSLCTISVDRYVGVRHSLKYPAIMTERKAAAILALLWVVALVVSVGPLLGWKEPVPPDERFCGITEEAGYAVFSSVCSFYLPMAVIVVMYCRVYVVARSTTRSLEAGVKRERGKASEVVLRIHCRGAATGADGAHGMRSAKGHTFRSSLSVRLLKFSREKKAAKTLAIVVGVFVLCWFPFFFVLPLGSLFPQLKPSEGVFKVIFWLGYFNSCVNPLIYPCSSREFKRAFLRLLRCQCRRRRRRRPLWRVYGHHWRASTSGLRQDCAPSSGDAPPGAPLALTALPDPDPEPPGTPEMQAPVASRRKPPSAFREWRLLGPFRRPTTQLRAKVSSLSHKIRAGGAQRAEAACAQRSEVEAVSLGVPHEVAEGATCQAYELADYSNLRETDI
# key: entry, value: Ki
measurement_name: Ki

{"columns": ["compound", "assayed_target", "measurement_name", "data_value"],
 "data": [
  ["Cc1ncccc1OC[C@@H]1CN(CC(=O)N2c3ccccc3C[C@H]2C)CCO1", "Alpha1D adrenergic receptor (Homo sapiens (Human))", "Ki", "> 10 µM"],
  ["CC1Cc2ccccc2N1C(=O)CN1CCO[C@H](COc2cccc(Cl)c2)C1 (stereo partly shown)", "Alpha1D adrenergic receptor (Homo sapiens (Human))", "Ki", "> 10 µM"],
  ["CC1Cc2ccccc2N1C(=O)CN1CCO[C@@H](COc2cccc(Cl)c2)C1 (stereo partly shown)", "Alpha1D adrenergic receptor (Homo sapiens (Human))", "Ki", "> 10 µM"],
  ["Clc1cccc(OC[C@@H]2CN(CCN3CCc4ccccc43)CCO2)c1 [Compound 23s]", "Alpha1D adrenergic receptor (Homo sapiens (Human))", "Ki", "4.18 µM"]
]}

====

Record set of Ki for target or system 5HT1a receptor (Homo sapiens (Human), UniProt P08908).

{"columns": ["compound", "quantity_unit", "qualifier_operator", "Ki"],
 "data": [
  ["CC1Cc2ccccc2N1C(=O)CN1CCO[C@@H](COc2cccc(Cl)c2)C1 (some centres unmarked) [Compound 65]", "µM", ">", 10],
  ["c1cncc(OC[C@@H]2CN(CCN3CCc4ccccc43)CCO2)c1 [Compound 21s]", "µM", "=", 10],
  ["O=C(CN1CCO[C@H](COc2cccc(Cl)c2)C1)N1CCc2ccccc21 [Compound 22s]", "µM", "=", 1.39],
  ["Cc1ccccc1OC[C@H]1CN(CC(=O)N2c3ccccc3CC2C)CCO1 (some centres unmarked) [Compound 66]", "µM", "=", 7.54],
  ["c1ccc(OC[C@H]2CN(CCN3CCc4ccccc43)CCO2)nc1 [Compound 15r]", "µM", "=", 2.88]
]}
